test: Intrinsic dissolution rate and solubility in 0.1 N HCl with 1% Tween 80 (USP <1087>); format: physicochemical; settings: 0.1 N HCl with 1% Tween 80, 37° C., 500 mL, pellet about 75 mg, 45 min
Where a name gives a salt, the structure may show the parent alone.
Consider the following compounds; for each one, report its Solubility, time point 45 min.
Answers are plain numbers, in µg/mL.

Examples from the recorded data:
INSERT INTO measurements (compound, value_reported) VALUES
  ('[2H]C([2H])([2H])C(c1cc2nnc(-c3cc(F)ccc3F)n2nc1OCc1ncnn1C)(C([2H])([2H])[2H])C([2H])([2H])[2H] [Maleate Salt]', 0.462),
  ('[2H]C([2H])([2H])C(c1cc2nnc(-c3cc(F)ccc3F)n2nc1OCc1ncnn1C)(C([2H])([2H])[2H])C([2H])([2H])[2H] [Phosphate Salt]', 0.449),
  ('[2H]C([2H])([2H])C(c1cc2nnc(-c3cc(F)ccc3F)n2nc1OCc1ncnn1C)(C([2H])([2H])[2H])C([2H])([2H])[2H] [Sulfate Salt]', 0.453),
  ('[2H]C([2H])([2H])C(c1cc2nnc(-c3cc(F)ccc3F)n2nc1OCc1ncnn1C)(C([2H])([2H])[2H])C([2H])([2H])[2H] [Fumarate Salt]', 0.46),
  ('[2H]C([2H])([2H])C(c1cc2nnc(-c3cc(F)ccc3F)n2nc1OCc1ncnn1C)(C([2H])([2H])[2H])C([2H])([2H])[2H] [Tosylate Salt]', 0.755);

# next compound below
Noted for [2H]C([2H])([2H])C(c1cc2nnc(-c3cc(F)ccc3F)n2nc1OCc1ncnn1C)(C([2H])([2H])[2H])C([2H])([2H])[2H] [Malonate Salt] : its Solubility, time point 45 min reads 0.579

====

Consider the following molecules; for each one, report its Solubility, time point 90 min.
test: Intrinsic dissolution rate and solubility in 0.1 N HCl with 1% Tween 80 (USP <1087>); format: physicochemical; conditions: 0.1 N HCl with 1% Tween 80, 37° C., 500 mL, pellet about 75 mg, 90 min
Where a name gives a salt, the structure may show the parent alone.
One number for each entry, in µg/mL.

INSERT INTO assay_data (molecule, value_reported) VALUES
  ('[2H]C([2H])([2H])C(c1cc2nnc(-c3cc(F)ccc3F)n2nc1OCc1ncnn1C)(C([2H])([2H])[2H])C([2H])([2H])[2H] [Phosphate Salt]', 0.769),
  ('[2H]C([2H])([2H])C(c1cc2nnc(-c3cc(F)ccc3F)n2nc1OCc1ncnn1C)(C([2H])([2H])[2H])C([2H])([2H])[2H] [Sulfate Salt]', 0.772),
  ('[2H]C([2H])([2H])C(c1cc2nnc(-c3cc(F)ccc3F)n2nc1OCc1ncnn1C)(C([2H])([2H])[2H])C([2H])([2H])[2H] [Maleate Salt]', 0.791);

Can you give me Solubility, time point 90 min for all of these, one by one?
1. [2H]C([2H])([2H])C(c1cc2nnc(-c3cc(F)ccc3F)n2nc1OCc1ncnn1C)(C([2H])([2H])[2H])C([2H])([2H])[2H] [Malonate Salt]
2. [2H]C([2H])([2H])C(c1cc2nnc(-c3cc(F)ccc3F)n2nc1OCc1ncnn1C)(C([2H])([2H])[2H])C([2H])([2H])[2H] [Fumarate Salt]
3. [2H]C([2H])([2H])C(c1cc2nnc(-c3cc(F)ccc3F)n2nc1OCc1ncnn1C)(C([2H])([2H])[2H])C([2H])([2H])[2H] [Tosylate Salt]

1. 0.87
2. 0.79
3. 1.15

====

test: Intrinsic dissolution rate and solubility in 0.1 N HCl with 1% Tween 80 (USP <1087>); assay type: physicochemical; details: 0.1 N HCl with 1% Tween 80, 37° C., 500 mL, pellet about 75 mg, 15 min
Structures can show the parent of a compound that is named as a salt.
The threshold is inclusive: Solubility, time point 15 min of exactly 0.4 µg/mL counts as Condition met; values below receive Condition not met.

Before answering, review these 4 worked examples.
INSERT INTO assay_data (compound, group) VALUES
  ('[2H]C([2H])([2H])C(c1cc2nnc(-c3cc(F)ccc3F)n2nc1OCc1ncnn1C)(C([2H])([2H])[2H])C([2H])([2H])[2H] [Malonate Salt]', 'Condition not met'),
  ('[2H]C([2H])([2H])C(c1cc2nnc(-c3cc(F)ccc3F)n2nc1OCc1ncnn1C)(C([2H])([2H])[2H])C([2H])([2H])[2H] [Sulfate Salt]', 'Condition not met'),
  ('[2H]C([2H])([2H])C(c1cc2nnc(-c3cc(F)ccc3F)n2nc1OCc1ncnn1C)(C([2H])([2H])[2H])C([2H])([2H])[2H] [Hydrochloride Salt]', 'Condition met'),
  ('[2H]C([2H])([2H])C(c1cc2nnc(-c3cc(F)ccc3F)n2nc1OCc1ncnn1C)(C([2H])([2H])[2H])C([2H])([2H])[2H] [Phosphate Salt]', 'Condition not met');

Determine whether measured Solubility, time point 15 min meets or exceeds 0.4 µg/mL for [2H]C([2H])([2H])C(c1cc2nnc(-c3cc(F)ccc3F)n2nc1OCc1ncnn1C)(C([2H])([2H])[2H])C([2H])([2H])[2H] [Tosylate Salt]
Condition met

Determine whether measured Solubility, time point 15 min meets or exceeds 0.4 µg/mL for [2H]C([2H])([2H])C(c1cc2nnc(-c3cc(F)ccc3F)n2nc1OCc1ncnn1C)(C([2H])([2H])[2H])C([2H])([2H])[2H] [Maleate Salt]
Condition not met

Determine whether measured Solubility, time point 15 min meets or exceeds 0.4 µg/mL for [2H]C([2H])([2H])C(c1cc2nnc(-c3cc(F)ccc3F)n2nc1OCc1ncnn1C)(C([2H])([2H])[2H])C([2H])([2H])[2H] [Fumarate Salt]
Condition not met

====

assay: Intrinsic dissolution rate and solubility in 0.1 N HCl with 1% Tween 80 (USP <1087>); assay type: physicochemical; details: 0.1 N HCl with 1% Tween 80, 37° C., 500 mL, pellet about 75 mg, 30 min
Structures can show the parent of a compound that is named as a salt.
endpoint_label: Solubility, time point 30 min (µg/mL)
Answers are plain numbers, in µg/mL.

Can you give me Solubility, time point 30 min for all of these, one by one?
1. [2H]C([2H])([2H])C(c1cc2nnc(-c3cc(F)ccc3F)n2nc1OCc1ncnn1C)(C([2H])([2H])[2H])C([2H])([2H])[2H] [Tosylate Salt]
2. [2H]C([2H])([2H])C(c1cc2nnc(-c3cc(F)ccc3F)n2nc1OCc1ncnn1C)(C([2H])([2H])[2H])C([2H])([2H])[2H] [Fumarate Salt]

1: 0.638; 2: 0.404

Can you give me Solubility, time point 30 min for all of these, one by one?
1. [2H]C([2H])([2H])C(c1cc2nnc(-c3cc(F)ccc3F)n2nc1OCc1ncnn1C)(C([2H])([2H])[2H])C([2H])([2H])[2H] [Phosphate Salt]
2. [2H]C([2H])([2H])C(c1cc2nnc(-c3cc(F)ccc3F)n2nc1OCc1ncnn1C)(C([2H])([2H])[2H])C([2H])([2H])[2H] [Maleate Salt]
3. [2H]C([2H])([2H])C(c1cc2nnc(-c3cc(F)ccc3F)n2nc1OCc1ncnn1C)(C([2H])([2H])[2H])C([2H])([2H])[2H] [Malonate Salt]
4. [2H]C([2H])([2H])C(c1cc2nnc(-c3cc(F)ccc3F)n2nc1OCc1ncnn1C)(C([2H])([2H])[2H])C([2H])([2H])[2H] [Sulfate Salt]

[0.375, 0.36, 0.454, 0.364]

====

assay: Intrinsic dissolution rate and solubility in 0.1 N HCl with 1% Tween 80 (USP <1087>); format: physicochemical; conditions: 0.1 N HCl with 1% Tween 80, 37° C., 500 mL, pellet about 75 mg, 75 min
Where a name gives a salt, the structure may show the parent alone.
endpoint_label: Solubility, time point 75 min (µg/mL)
Give bare numbers, in µg/mL.

Examples from the recorded data:
INSERT INTO measurements (compound, value_reported) VALUES
  ('[2H]C([2H])([2H])C(c1cc2nnc(-c3cc(F)ccc3F)n2nc1OCc1ncnn1C)(C([2H])([2H])[2H])C([2H])([2H])[2H] [Malonate Salt]', 0.757),
  ('[2H]C([2H])([2H])C(c1cc2nnc(-c3cc(F)ccc3F)n2nc1OCc1ncnn1C)(C([2H])([2H])[2H])C([2H])([2H])[2H] [Tosylate Salt]', 1.02),
  ('[2H]C([2H])([2H])C(c1cc2nnc(-c3cc(F)ccc3F)n2nc1OCc1ncnn1C)(C([2H])([2H])[2H])C([2H])([2H])[2H] [Phosphate Salt]', 0.615),
  ('[2H]C([2H])([2H])C(c1cc2nnc(-c3cc(F)ccc3F)n2nc1OCc1ncnn1C)(C([2H])([2H])[2H])C([2H])([2H])[2H] [Sulfate Salt]', 0.668);

Can you give me Solubility, time point 75 min for all of these, one by one?
1. [2H]C([2H])([2H])C(c1cc2nnc(-c3cc(F)ccc3F)n2nc1OCc1ncnn1C)(C([2H])([2H])[2H])C([2H])([2H])[2H] [Fumarate Salt]
2. [2H]C([2H])([2H])C(c1cc2nnc(-c3cc(F)ccc3F)n2nc1OCc1ncnn1C)(C([2H])([2H])[2H])C([2H])([2H])[2H] [Maleate Salt]

1: 0.684; 2: 0.681
